B1: glmS ribozyme (parent)
chain: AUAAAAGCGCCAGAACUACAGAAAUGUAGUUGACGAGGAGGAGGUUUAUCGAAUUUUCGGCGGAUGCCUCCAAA

variants of: B1; test: kcat; higher = faster cleavage; RNA array; conditions: with glucosamine-6-phosphate
Variants at the floor of the assay were thinned out.
Kind request: treat 0.0003 s⁻¹ as inclusive, so kcat at 0.0003 s⁻¹ or higher is YES, anything lower is NO.

# count of solved cases: 6
* AUAAAAGCGCCAUAACUACAGAAAUGUAGUUGACGAGCAGGAGGUUUAUCGAAUUUUCGGCGGAUGCCUCCAAA | NO
* AUAAAAGCGCCAGUACUACAGAAAUGUAGUUGACGAGGAGGAGGUUUAUCUAAUUUUCGGCGGAUGCCUCCAAA | NO
* AUAAAAGCGCCAGAACUACAGAAAUGUAGUGGACGAUGAGGAGGUUUAUCGAAUUUUCGGCGGAUGCCUCCAAA | NO
* AUAAAAGCGCCAGAACUACAGAAAUGUAGUUGACGAGCAGGAGGUUUAUCGCAUUUUCGGCGGAUGCCUCCAAA | NO
* AUAAAAGCGCCUGAACUACAGAAAUGUAGUUGACGAGGAGGAGGUUUGUCGAAUUUUCGGCGGAUGCCUCCAAA | NO
* AUAAAAGCGCGAGAACUACAGAAAUGUAGUUGACGAGGAGGAGGUUUAUCAAAUUUUCGGCGGAUGCCUCCAAA | NO

Could you verify whether the entry AUAAAAGCGCCAGAACUACAGAAAUGUAGUUGACGAGGAGGAGGUUUAUCGAAUUGUCGGCGGAUCCCUCCAAA shows kcat of no less than 0.0003 s⁻¹?
YES

Could you verify whether the entry AUAAAAGCGCCAGAACUACAGAAAUGUAUUUGACGAGAAGGAGGUUUAUCGAAUUUUCGGCGGAUGCCUCCAAA shows kcat of no less than 0.0003 s⁻¹?
NO

Could you verify whether the entry AUAAAAGCGUCAGAACUACAGAAAUGUAGUUGACGAGGAGGAGGUUUAUCGAAUUUUCGGCGGGUGCCUCCAAA shows kcat of no less than 0.0003 s⁻¹?
NO

Could you verify whether the entry AUAAAAGCGCCAGAACUACAGAAAUGUAGUUGACGAGGAGGAGGUUCAUUGAAUUUUCGGCGGAUGCCUCCAAA shows kcat of no less than 0.0003 s⁻¹?
NO

Could you verify whether the entry AUAAAAGCGCAAAAACUACAGAAAUGUAGUUGACGAGGAGGAGGUUUAUCGAAUUUUCGGCGGAUGCCUCCAAA shows kcat of no less than 0.0003 s⁻¹?
NO

Could you verify whether the entry AUAAAAGCGCCAGAACUACAGAAAUGUAGUUGACGAGGAGGAGGUAUAUCGAGUUUUCGGCGGAUGCCUCCAAA shows kcat of no less than 0.0003 s⁻¹?
YES
